Documented Human T-cell Binding 2 uM (MFI) across a set of binders
# TARGET: T1, human CD8 alpha (CD8A) on primary human CD8+ T cells (human, UniProt P01732 22-235)
# T1 construct: whole, on cells; also called hCD8A
# T1 sequence (P01732 22-235): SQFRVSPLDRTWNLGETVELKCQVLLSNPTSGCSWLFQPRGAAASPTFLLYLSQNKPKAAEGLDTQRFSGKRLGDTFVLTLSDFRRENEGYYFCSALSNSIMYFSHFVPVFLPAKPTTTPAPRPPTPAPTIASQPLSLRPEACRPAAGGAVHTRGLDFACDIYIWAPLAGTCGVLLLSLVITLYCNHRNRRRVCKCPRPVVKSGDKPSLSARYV
# PROTOCOL_DETAILS: flow cytometry, human CD8+ T cells, 2 uM FN3

- BINDER: "P282DR9P1359_C5 (designed binder, FN3 domain) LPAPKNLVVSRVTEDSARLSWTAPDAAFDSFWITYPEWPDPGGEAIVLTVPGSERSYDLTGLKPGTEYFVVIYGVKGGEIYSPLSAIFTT"
  UNIT_TAG: "MFI"
  Human T-cell Binding 2 uM (MFI): 31000
- BINDER: "P282BR9P1357_D12 (designed binder, FN3 domain) LPAPKNLVVSRVTEDSARLSWGQYITAFSFDSFLIQYQESEKVGEAIVLTVPGSERSYDLTGLKPGTEYTVSIYGVDVAWFQGKPTWSNPLSAIFTT"
  UNIT_TAG: "MFI"
  Human T-cell Binding 2 uM (MFI): 15300
- BINDER: "P282DR9P1359_E3 (designed binder, FN3 domain) LPAPKNLVVSRVTEDSARLSWTAPDAAFDSFAIAYPELPLGGEAIVLTVPGSERSYDLTGLKPGTEYFVIIYGVKGGVESFPLSAIFTT"
  UNIT_TAG: "MFI"
  Human T-cell Binding 2 uM (MFI): 4310
- BINDER: "P282DR9P1359_F6 (designed binder, FN3 domain) LPAPKNLVVSRVTEDSARLSWTAPDAAFDSFDIAYPEWPTTGEAIVLTVPGSERSYDLTGLKPGTEYFVVIWGVKGGDHSAPLSAIFTT"
  UNIT_TAG: "MFI"
  Human T-cell Binding 2 uM (MFI): 19900
- BINDER: "P282FR9P1361_F7 (designed binder, FN3 domain) LPAPKNLVVSRVTEDSARLSWTAPDAAFDSFPIWYREYATGEAIVLTVPGSERSYDLTGLKPGTEYDVVITGVKGGYPSYPLSAIFTT"
  UNIT_TAG: "MFI"
  Human T-cell Binding 2 uM (MFI): 7000
- BINDER: "P282ER9P1360_E4 (designed binder, FN3 domain) LPAPKNLVVSRVTEDSARLSWTAPDAAFDSFGILYYEPVDSGEAITLPVLGSERSYDLTGLKPGTEYWVVITGVKGGAPSTPLGAIFTT"
  UNIT_TAG: "MFI"
  Human T-cell Binding 2 uM (MFI): 26900
- BINDER: "P282ER9P1360_C6 (designed binder, FN3 domain) LSAPKNLVVSRVTEDSARLSWTAPDAAFDSFGILYYEPVDSGEAITLPIPGSERSYDLTGLKPGTEYWVVITGVKGGAPSTPLGAIFTT"
  UNIT_TAG: "MFI"
  Human T-cell Binding 2 uM (MFI): 25900
- BINDER: "P282FR9P1361_H5 (designed binder, FN3 domain) LPAPKNLVVSRVTEDSARLSWTAPDAAFDSFDIWYAEYGYPGEAIVLTVPGSERSYDLTGLKPGTEYDVAISGVKGGPRSYPLSAIFTT"
  UNIT_TAG: "MFI"
  Human T-cell Binding 2 uM (MFI): 5730
- BINDER: "P283BR9P1363_B2 (designed binder, FN3 domain) LPAPKNLVVSRVTEDSARLSWASTVDPHPRFDSFLIQYQESEKVGEAIVLTVPGSERSYDLTGLKPGTEYTVSIYGVDVKYDIDSRPISSNPLSAIFTT"
  UNIT_TAG: "MFI"
  Human T-cell Binding 2 uM (MFI): 8360
